biological target: oestrone sulphatase (E1-STS) (Homo sapiens, UniProt P08842); assay: Inhibition of steroid sulphatase activity in placental microsomes; type: biochemical; parameters: from tissue; host or cells: human term placenta (microsomal preparation); conditions: 10 μM
Sequence (P08842 22-583): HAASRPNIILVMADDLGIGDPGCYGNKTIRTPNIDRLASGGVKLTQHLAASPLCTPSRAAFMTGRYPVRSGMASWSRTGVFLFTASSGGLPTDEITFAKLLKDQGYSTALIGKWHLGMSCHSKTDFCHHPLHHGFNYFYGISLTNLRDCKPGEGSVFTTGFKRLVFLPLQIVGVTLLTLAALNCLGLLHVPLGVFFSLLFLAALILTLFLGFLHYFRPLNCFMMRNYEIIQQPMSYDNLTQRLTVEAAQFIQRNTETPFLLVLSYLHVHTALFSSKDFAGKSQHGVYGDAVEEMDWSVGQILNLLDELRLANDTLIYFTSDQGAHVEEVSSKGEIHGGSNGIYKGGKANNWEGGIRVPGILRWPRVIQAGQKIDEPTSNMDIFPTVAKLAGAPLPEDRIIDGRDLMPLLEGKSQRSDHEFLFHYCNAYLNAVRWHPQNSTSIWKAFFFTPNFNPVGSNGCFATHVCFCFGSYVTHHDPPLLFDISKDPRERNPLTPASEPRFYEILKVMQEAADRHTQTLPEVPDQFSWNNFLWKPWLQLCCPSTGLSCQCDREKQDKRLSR
recorded.endpoint: % Inhibition of E1-STS activity in placental microsomes (%)

# compound, result
rows = [
    ("NS(=O)(=O)Oc1ccc(C(=O)c2ccccc2)cc1 [Compound 6, Benzophenone-4-O-sulphamate]", 76.73),
    ("NS(=O)(=O)Oc1ccc(Cc2ccc(O)cc2)cc1 [Compound 19]", 11.7),
    ("NS(=O)(=O)Oc1ccc(Sc2ccc(OS(N)(=O)=O)cc2)cc1 [Compound 15, Thiodiphenyl-4,4′O,O-bis-sulphamate]", 65.3),
]

P: NS(=O)(=O)Oc1ccc(Sc2ccc(O)cc2)cc1 [Compound 16, 4′-hydroxy-thiodiphenyl-4-O-sulphamate]
Q: NS(=O)(=O)Oc1ccc(C(=O)c2ccc(O)cc2)cc1 [Compound 5, 4′-Hydroxybenzophenone-4-O-sulphamate]
# compare % Inhibition of E1-STS activity in placental microsomes for P vs Q ; return the one with the smaller value Return value: the label identifying the chosen record.
P
(P: 33.1%, Q: 62.1%)

Just for reference, patent US20060281719A1 is where these values come from.
